protocol-details: yeast display, Sf9 membrane polyspecificity reagent, FACS + sequencing; frameworks hold sequencing errors
measured-metric: polyreactivity (PSR sort gate)

sequence	experimental-result
QVQLVESGGGLVQAGGSLRLSCAASGSLSYTYGMGCYRQAPGKERELVAAISTSGGNTYYADSVKGRFTISRDNAKNSVYLQMNSLKPEDTAVYYCSAYYGRGSIKRYYYWGQGTQVTVSS	high polyreactivity
QVQLVESGGGLVQAGGSLRLSCAASGSIFPGYAMGWYRQAPGKERELVATITWSGGSTYYADSVKGRFTISRDNAKNTVYLQMISLKTEDTAVYYCNADSNCYYQWNYYGLYDYWGQGTQVTVSS	low polyreactivity
QVQLVESGGGLVQAGGSLRLSCAASGSIFITYAMGWYRQAPGKERELVAAIRRGGRTNYADSVKGRFTISRDNAKNTVYLQMNSLKPEDTAVYYCAAEFRTGWPYYPDYAYDYWGQGTQVTVSS	low polyreactivity
QVQLVESGGGLVQAGGSLRLSCAASGIIFEGNVMGWYRQAPGKERELVAAITSDTSTNYADSVKGRFTISRDNAKNTVYLQMNSLKPEDTAVYYCNAVIGTDYYYSGTAEFYYWGQGTQVTVSS	low polyreactivity
QVQLVESVGGLVQAGGSLRLSCAASGFIILINVMGWYRKAPGKERELVAVITGGGTTNYADSVKGRFTISRDNAKNTVYLQMNSLKPEDTAVYYCAVDAGAGDNDYWGQGTQVTVSS	low polyreactivity
QVQLVESGGGLVQAGGSLRLSCAASGFIYDYAMGWYRQAPGKEREFVARINWSGGSTYYADSVKGRFTISRDNAKNTVYLQMNSLKPEDTAVFYCATSGWAWRTSNPYEYWGQGTQVTVSS	low polyreactivity
QVQLVESGGGLVQAGGSLRLSCAASGRTFYYYAMGWYRQPPGKERELVAAIRWSTGSTYYADSVKGRFTISRVNAQITVYLQMNSLKPEDTAVYYCAADTWYIQWGYYWGQGTQVTVSS	low polyreactivity
QVQLVESGGGLVQAGGSLRLSCAASGRTFISNVIGWYRKAPGKERDLVAAITWRGGRTHYADSVKGRFTISRDNAKITVYLQMNSLKPEDTAVYYCAARYIPIQYPSYRTWGGYSWGQGTQVTVSS	high polyreactivity
QVQLVESGGCLVQAGGSLRLSCAASGFIIRYYAMGWYRQAPGKERELDAAITRGGSTYYADSVKGRFRISRDNAKNTVYLQMNSLNPEDTAVYYCAARLYTQYYYWGQGTQVNVSS	high polyreactivity
QVQLVESGGGLVQAGGSLRLSCAASGRIFQAYAMGWYRQAPGKERELVAAISRSGGGTYYADSVKGRFTISRDNAKNTVYLQMNSLKPEDTAVYYCNARGSTARGRGYWGQGTQVTVSS	high polyreactivity
QGQLVESGGGLVQAGGSLRLSCAASGSTFRYNTMGWYRQAPGKERELVAAISSGGGTHYADSVKGRFTISRDNAKNTVYLQMNSLKPEDTAVYYCAAQSRYRYQFYSGLEYDYWGQGTQVTVSS	low polyreactivity

----------
protocol-details: yeast display, Sf9 membrane polyspecificity reagent, FACS + sequencing; frameworks hold sequencing errors

sequence	polyreactivity (PSR sort gate)
QVQLVESGGGLVQAGGSLRLSCAASGSILYRYTMGWDRQAPGKERELVAAISFSGGRTYYADSVKGRFTISRDNAKNTVYLQMNSLKPEDTAVYYCNAGTSGKYGYWGQGTQVTVSS	high polyreactivity
QVQLVESGGGLVQAGGSLRLSCAASGLIFVDYTMGWYRQAPGKERELVAGISNSGNTNYADSVKGRFTISRDNAKNTVYLQMNSLKPEDTAVYYCAAVYTWYPWYPYDYWGQGTQVTVSS	low polyreactivity
QVQLVESGGGLVQAGGSLRLSCAASGLIILPNAMGWYRQAPGKDRELVAAISSYDGSTYYADSVKGRFTISRDSAKNTVYLQMNSLKPEDTAVYYCAAGYYFQVEPDLVYIYSYEYWGQGTQVTVSS	low polyreactivity
QVQLVESGGGLVQAGGSLRLSCAASGSILNSYAMGWYRQAPGKERELVASITVIGGSTYYADSVKGRFSISRDNAKNTDYLQMNSLKPEDTAVYYCNKEWIIADAYYGVHDYYYWGQGTQVTVSS	low polyreactivity
QVQLVESGGGLVQAGGSLRLSCAASGRTFDWYVMGWYRQAPGKERELVASIPGTGSTYYADSVKGRFTISRDNAKNTVYLQMNSLKPEDTAVYYCNVAWIWGKYDYWGQGTQVTVSS	high polyreactivity
QVQLVESGGGLVQAGGSRRLSCAASGLICLLYDMGWYREAPGKERELVAAISTGGSTDYADSVKGRFTISRDNAKNTVYLPLNSLKPEDTAVYYCAADYYLYYLDGEDYWVQGTQVTVSS	high polyreactivity
QVQLVESGGGLVQAGGSLRLSCAASGSTFYSYAMGWYRQAPGKERELVAAITKGGGSTYYADSVKGRFTISRDNAKNTVYLQMNSLKPEDTAVYYCAAPGLYWYYTRSGYDYWGQGTQVTVSS	high polyreactivity
QVHLVESGGGLVQAGGSLRLSCAASGSISGLYAMGWYRQAPGKETELVAAISFSAGSTYYADSVKGRFTISRDNAKNTVYFQMNSLKPEDTAVYYCAADGQYGGVPNTSEWTFDYWGQGTQVTVSS	low polyreactivity
QVHLVESGGGLVQAAGSLRLSCAASGRTFPYNAKGWYRQAPGKERELVAAISSGGSTNYADSVKGRFTISRDNAKNTVYLQMNSLKPEDTAVYYCATKYQRRPYRYYYWGQGTQVTVSS	low polyreactivity
QDQLVESGVGIVQAGGSLRLSCAASGSTFGIYAKGWYRQAPGKETELDAAISSGASTNYADSVKGRFTISRDNEKNTVYLQMNSLKQEDTAVYYCAVESVYEYGGYVDSAYDYWGQGTQVTVSS	low polyreactivity
QVQLVESGGCLVQAGGSLRLSCAASGRIFSAYAMGWYRQAPGKESELVAAISRSGGLTYYADSVKGRFTISRDNAKNTVYLQMTSLKPEDTAVYYCAARYGSYDSRRWYYYWGQGTQVTVSS	high polyreactivity

----------
protocol-details: yeast display, Sf9 membrane polyspecificity reagent, FACS + sequencing; frameworks hold sequencing errors
measured-metric: polyreactivity (PSR sort gate)

sequence	experimental-result
QVQLVESGGGLVQAGGSLRLSCAASGSTSVQYAMGWYRQAPGKERELVAAIDRSGGSTSYADSVKGRFTISRDNAKNTVYLQMNSLKPEDTAVYYCNADPVRSTYSYDYWGQGTQVTVSS	low polyreactivity
QVQLVESGGGLVQAGGSLRLSCAASGSIFVFYDMGWYRQAPGKERELVATISSGGGGTYYTDSVKGRFTISRDNAKNTVYLQMNSLKPEDTAVYYCAAEGDKYGKGYGYWGQGTQVTVSS	low polyreactivity
QLQLVESGGGLVQAGGSLRLSCAASGFTFRCNAMGWYRQAPGKEMELVAGITSGGSTNYADSVKGRFTISRDNAKNTVYLQMNSLKPEDTAVYYCNAAWYRWKQRYDYWGQGTQVTVSS	low polyreactivity
QVQLVESGGGLVQAGGSLRLICAASGRSFDYYAMGWYRQAPGKERDLVAAITSGGTTTYYADSVKGRFTISRDNAKNTVYVQMNSLKPEDYAVYYCAKYPYHIYHTDGDYWGQGTQVTVSS	low polyreactivity
QVQLVESGGGLVQAGGSLRLSCAASGRIFKYHAMGWYRQAPGKERELVAAITWGGGGTYYADSVKGRFTISRDNAKNTVYLQMNSLIPEDTAVYYCNTERWGTGKLRYNYWGPGTQVTVSS	low polyreactivity
QVQLVESGGGLVQAGGSLRLSCAASGSTFDYNAMGWYRQAPGKERELVAAITTIGGSTYYADSVKGRFTISRDNAKNTVYLQMNSLKPEDTAVYYCAADLRVWGRSGYDYWGQGTQVTVSS	low polyreactivity
QVQLVESGGGLVQAGGSLRLSCAASGRTFYFNTLGWERQAPGKERELVAAISSGVNTYYADSVKGRFTISRDNAKTTVYLQMNSLKPEDTAVYYCNADYIHTGDYLWYFLYDYWGQGTQVTVSS	high polyreactivity
QVQLVESGGGLVKAGGSLRLSCAASGRTFGWYVMGWYRQAPGKEMELVAAISLRGGTTYYADSVKGRFTISRDNAKNTVYLQMNSLNPEDTAVYYCAIAGIRHVTCKFKGYHFGYWGQGTQVTVSS	low polyreactivity
QVQLVESWGGLVQAGGSLRLSCAASGSTFTTNAMGWYRQAPGKERELVATMSGGGSTYYADSVKGSFTISRDNAKHTVYLQTNSLKPEDTAVYYCAKPTYRFYWGDFDYWGQGTQVTLSS	low polyreactivity
QVQLVESGGGLVQAGGSLRLSCAASGSTLYRYAMGWYRQAPGKERELVAAISSSGGSTYYADSVKGRFTISRDNAKNTVYLQMNSLKPEDTAVYYCAATSSFYFILYDYWGQGTQVTVSS	high polyreactivity
QVQLVESGGGFVQAGGSLRLSCAASGRIFRYYTMGWYRKAPGKERELVAAISWTGASTYYADSVKGRFTISLDNAKNTLYLQMNSLKPEDTAVYYCAADSYIAHHGFAMDYWGQGTQVTVSS	low polyreactivity
